Origin of measurements: paper PMC5608758

assay: Plasma pharmacokinetic study in SD rat; details: Sprague-Dawley, rat, plasma, iv, 3 μmol/kg
value_type: Cmax (nM)
Please reply with the bare figure in nM and do not write the unit itself.

[in] So what's the measured Cmax for this one? Ac-DGKSKGIAYIEFK-NH2 [P3V8]
[out] 452

###

target: expanded MJD CAG78 RNA; assay: Isothermal titration calorimetry binding assay, expanded CAG RNA; settings: ITC, 25 °C, 20 mM MOPS pH 7.0, 300 mM NaCl; 0.7 mM peptide titrated into 0.5 µM MJD CAG78 RNA; one binding site model; mean ± S.E.M., at least 3 independent experiments
Non-standard residues stand in square brackets, D forms with d. Residues, ends and D or L forms follow the SMILES beside them. hArg = N=C(N)NCCCC[C@H](N)C(=O)O; Orn = NCCC[C@H](N)C(=O)O

compound	KD
CC[C@H](C)[C@H](NC(=O)CNC(=O)[C@H](CCCCN)NC(=O)[C@H](CO)NC(=O)[C@H](CCCN)NC(=O)CNC(=O)[C@H](CC(=O)O)NC(C)=O)C(=O)N[C@@H](C)C(=O)N[C@@H](Cc1ccc(O)cc1)C(=O)N[C@H](C(=O)N[C@@H](CCC(=O)O)C(=O)N[C@@H](Cc1ccccc1)C(=O)N[C@@H](CCCCN)C(N)=O)[C@@H](C)CC [P3V16] (Ac-DG[Orn]SKGIAYIEFK-NH2)	No binding
CC[C@H](C)[C@H](NC(=O)CNC(=O)[C@H](CCCCNC(=N)N)NC(=O)[C@H](CO)NC(=O)[C@H](CCCCN)NC(=O)CNC(=O)[C@H](CC(=O)O)NC(C)=O)C(=O)N[C@@H](C)C(=O)N[C@@H](Cc1ccc(O)cc1)C(=O)N[C@H](C(=O)N[C@@H](CCC(=O)O)C(=O)N[C@@H](Cc1ccccc1)C(=O)N[C@@H](CCCCN)C(N)=O)[C@@H](C)CC [P3V15] (Ac-DGKS[hArg]GIAYIEFK-NH2)	No binding
CC[C@H](C)[C@H](NC(=O)CNC(=O)[C@H](CCCCN)NC(=O)[C@H](CO)NC(=O)[C@H](CCCCNC(=N)N)NC(=O)CNC(=O)[C@H](CC(=O)O)NC(C)=O)C(=O)N[C@@H](C)C(=O)N[C@@H](Cc1ccc(O)cc1)C(=O)N[C@H](C(=O)N[C@@H](CCC(=O)O)C(=O)N[C@@H](Cc1ccccc1)C(=O)N[C@@H](CCCCN)C(N)=O)[C@@H](C)CC [P3V14] (Ac-DG[hArg]SKGIAYIEFK-NH2)	No binding
CC[C@H](C)[C@H](NC(=O)CNC(=O)[C@H](CCCN)NC(=O)[C@H](CO)NC(=O)[C@H](CCCCN)NC(=O)CNC(=O)[C@H](CC(=O)O)NC(C)=O)C(=O)N[C@@H](C)C(=O)N[C@@H](Cc1ccc(O)cc1)C(=O)N[C@H](C(=O)N[C@@H](CCC(=O)O)C(=O)N[C@@H](Cc1ccccc1)C(=O)N[C@@H](CCCCN)C(N)=O)[C@@H](C)CC [P3V17] (Ac-DGKS[Orn]GIAYIEFK-NH2)	No binding
